Origin of measurements: patent US11969396B2

# System: MCF-7 cells
# Test Details: In vitro cytotoxicity, MTT staining
# Format: cell-based
# Run Conditions: Homo sapiens, MCF7
Test Readout: IC50 (µM)
Write the value in µM as a bare number.

For the compound Oc1ccc2ccccc2c1SSc1c(O)ccc2ccccc12 , give its measured IC50 value.
25

---

# Tested on: PC-3 cells
# Test Details: In vitro cytotoxicity, MTT staining
# Type: cell-based
# Run Conditions: Homo sapiens
Test Readout: pIC50
In plain terms, pIC50 is the concentration in mol/L turned into minus its base-10 logarithm.

Would you please give the reported pIC50 of Oc1ccc2ccccc2c1SSc1c(O)ccc2ccccc12 [IPA-3, 1,1′-Dithiodi-2-naphthtol] with PC-3 cells?
4.92
